target: S. pyogenes SKKanGAS, kanamycin survival, BacTiterGlo, 6 h; assay: S. pyogenes SKKanGAS kanamycin growth inhibitors – SKKanGAS strain, luminescence, dose confirmation, streptokinase promoter inhibitor project, dose response (AID 1902);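 further: lower survival reflects blocked streptokinase promoter driving kanamycin resistance gene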
readout_kind: EC50

Reference set (5 entries):
> print(dat)
                                   compound  meas.value
1  N#Cc1c(-c2c(Cl)cccc2Cl)noc1/C=C/Nc1ccc(C(=O)O)cc1      4.6 µM
2          O=C(CC(=O)c1cc(Cl)ccc1O)c1ccccc1     1.01 µM
3  Cc1ccc2c(c1)C(=O)CC1(CCC(C(C)(C)C)CC1)O2 (stereo unspecified)     3.01 µM
4  C#CCN1C(=O)S/C(=C\c2ccc(-c3ccc(Cl)c(C(=O)O)c3)o2)C1=O     2.83 µM
5  Nc1sc(-c2ccccc2)cc1C(=O)N/N=C/c1ccc(Cl)cc1     5.73 µM

**Query** State recorded EC50 with S. pyogenes SKKanGAS, kanamycin survival, BacTiterGlo, 6 h, entry "Nc1n[nH]c(C2CC2)c1N=Nc1ccc(Cl)c(Cl)c1" , no comment.
**Result** 2.05 µM

**Query** State recorded EC50 with S. pyogenes SKKanGAS, kanamycin survival, BacTiterGlo, 6 h, entry "O=C(Nc1ccc2nc(-c3ccc4nc[nH]c4c3)[nH]c2c1)c1cccs1" , no comment.
**Result** 15.7 µM

**Query** State recorded EC50 with S. pyogenes SKKanGAS, kanamycin survival, BacTiterGlo, 6 h, entry "O=C(c1ccc2c3n(nc2c1)-c1ccccc1CO3)N1CCCCC1" , no comment.
**Result** 9.38 µM

**Query** State recorded EC50 with S. pyogenes SKKanGAS, kanamycin survival, BacTiterGlo, 6 h, entry "CC(C)CN(Cc1cc(=O)oc2cc(-c3ccccc3)c(O)cc12)CC(C)C" , no comment.
**Result** 3.88 µM

**Query** State recorded EC50 with S. pyogenes SKKanGAS, kanamycin survival, BacTiterGlo, 6 h, entry "NC(N)=N/N=C/c1ccc(N(c2ccccc2)c2ccccc2)cc1" , no comment.
**Result** 2.06 µM

**Query** State recorded EC50 with S. pyogenes SKKanGAS, kanamycin survival, BacTiterGlo, 6 h, entry "CCc1ccc(CNc2ccc3c(c2)ncn3C(C)(C)C)cc1" , no comment.
**Result** 3.3 µM

###

molecular target: S. pyogenes SKKanGAS, kanamycin survival, BacTiterGlo, 6 h; test: S. pyogenes SKKanGAS kanamycin growth inhibitors – SKKanGAS strain, luminescence, dose confirmation, streptokinase promoter inhibitor project, dose response (AID 1902);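 further: lower survival reflects blocked streptokinase promoter driving kanamycin resistance gene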
Activity calls are given as the source filed them.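 Rule for the calls: active = EC50 no more than a set limit of log units above the highest dose; inactive = the rest.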
One label from this list, please: active, inactive

> print(dat)
                                   compound  category.label
1  Cc1[nH]n(-c2ncc(-c3ccccc3)s2)c(=O)c1C(c1ccc(Br)cc1)C(C#N)C#N (stereo not given)          active
2  O=C(COc1ccccc1)NC1C(=O)N2C(C(=O)O)=C(Cl)CSC12 (stereo not given)          active
3  Cc1ccc(Nc2cc(C)nn2-c2nc(C)cc(=O)[nH]2)cc1          active
4  COc1cccc(C(=O)NC(=S)Nc2ccccc2N2CCCCC2)c1        inactive
5   CCOC(=O)c1csc(NC(=O)c2ccc3c(c2)OCCO3)n1        inactive
6  Cc1ccc(C(=O)N/N=C/c2ccc([N+](=O)[O-])s2)cc1          active

**Query** Please state the recorded outcome for this compound: "Cn1nc(-c2ccccc2)c(CSc2cccc(Cl)c2)c1Cl"
**Result** active

**Query** Please state the recorded outcome for this compound: "Cc1nn(-c2nc3ccccc3[nH]2)c(N)c1-c1ccc(Cl)cc1"
**Result** active

**Query** Please state the recorded outcome for this compound: "N=C(N)c1ccc(OCCCCCOc2ccc(C(=N)N)cc2)cc1"
**Result** active

**Query** Please state the recorded outcome for this compound: "O=C(Cc1csc(NC(=O)Nc2cccc(Cl)c2)n1)NCc1ccccn1"
**Result** active

**Query** Please state the recorded outcome for this compound: "O=C(/C=C/c1cn(-c2ccccc2)nc1-c1ccccc1)Nc1ccc(C(=O)O)cc1"
**Result** active

**Query** Please state the recorded outcome for this compound: "CCOC(=O)/C(=N\Nc1ccc(OC)cc1)c1csc(Nc2ccccc2)n1"
**Result** active

**Query** Please state the recorded outcome for this compound: "O=c1[nH]c(-c2ccccn2)nc2sc(-c3ccccc3)cc12"
**Result** active

**Query** Please state the recorded outcome for this compound: "COC(=O)c1ccc2[nH]c3cccc(/C(=C/c4ccccc4)c4ccccc4)c3c2c1"
**Result** active

**Query** Please state the recorded outcome for this compound: "C[C@H]1[C@H](C)CC[C@]2(C)CC[C@]3(C)C(=CC[C@@H]4[C@@]5(C)CC[C@@H](O)[C@](C)(C(=O)O)[C@@H]5CC[C@]43C)[C@H]12"
**Result** active
